- target: HLA-B*15:42
- protocol_notes: IEDB peptide-MHC binding, purified MHC/competitive/fluorescence; filed as Kd, often an IC50 or EC50 that approximates it; bounds were set here for any values at or beyond the usual limits of such assays
- measurement_conditions: source organism: Orthohantavirus andesense
pKd: −log10 of the molar value.

[
  {
    "seq_text": "LEEDIQHFL",
    "pKd": "≤ 5.30"
  }
]

----------
- target: HLA-A*69:01
- protocol_notes: IEDB peptide-MHC binding, purified MHC/competitive/fluorescence; filed as Kd, often an IC50 or EC50 that approximates it; bounds were set here for any values at or beyond the usual limits of such assays
- measurement_conditions: source organism: Bacillus anthracis str. 'Ames Ancestor'

[
  {
    "seq_text": "MTQNISNDK",
    "target": "HLA-A*69:01",
    "Kd": "≥ 20 µM"
  }
]

----------
- target: HLA-A*02:01
- protocol_notes: IEDB peptide-MHC binding, purified MHC/competitive/fluorescence; filed as Kd, often an IC50 or EC50 that approximates it; bounds were set here for any values at or beyond the usual limits of such assays
- measurement_conditions: source organism: Campylobacter jejuni subsp. jejuni NCTC 11168 = ATCC 700819

[
  {
    "seq_text": "KGMKIQHFK",
    "target": "HLA-A*02:01",
    "Kd": "≥ 20 µM"
  }
]

----------
- target: HLA-A*11:01
- protocol_notes: IEDB peptide-MHC binding, purified MHC/competitive/radioactivity; filed as Kd, often an IC50 or EC50 that approximates it; bounds were set here for any values at or beyond the usual limits of such assays
- measurement_conditions: source organism: Mammarenavirus juninense

[
  {
    "seq_text": "FFTASLFLH",
    "target": "HLA-A*11:01",
    "Kd, nM": 247
  },
  {
    "seq_text": "RNPYENLLYK",
    "target": "HLA-A*11:01",
    "Kd, nM": 628
  }
]

----------
- target: HLA-B*08:01
- protocol_notes: IEDB peptide-MHC binding, purified MHC/competitive/fluorescence; bounds were set here for any values at or beyond the usual limits of such assays
- measurement_conditions: source organism: Zaire ebolavirus
pIC50: −log10 of the molar value.
value_type: pIC50

[
  {
    "seq_text": "HMMVIFRLM",
    "result": "≤ 2.46"
  }
]

----------
- target: HLA-B*39:01
- protocol_notes: IEDB peptide-MHC binding, purified MHC/direct/fluorescence; filed as Kd, often an IC50 or EC50 that approximates it; bounds were set here for any values at or beyond the usual limits of such assays
- measurement_conditions: source organism: Orthomarburgvirus marburgense
pKd: −log10 of the molar value.
value_type: pKd

[
  {
    "seq_text": "LYKTIVNIW",
    "result": "≤ 4.70"
  }
]

----------
- target: HLA-B*07:02
- protocol_notes: IEDB peptide-MHC binding, purified MHC/direct/fluorescence; filed as Kd, often an IC50 or EC50 that approximates it; bounds were set here for any values at or beyond the usual limits of such assays
- measurement_conditions: source organism: Influenza A virus (A/Ck/HK/2133.1/2003(H5N1))

[
  {
    "seq_text": "SADPLASLL",
    "target": "HLA-B*07:02",
    "Kd": "≥ 20 µM"
  }
]
